Test system: A498 renal
procedure_summary: NCI tumour cell line growth inhibition, 48 h

molecule: CCN1C(=O)N(CC)C2C1NN=c1s/c(=C\c3cccnc3)c(=O)n12 (stereo not given)
qualifier: =
TGI (µM): 1.01
--
molecule: CCCCCCCCCCCCOC(=S)NCCCC
qualifier: =
TGI (µM): 43.1
--
molecule: C=C(C)CCC(=O)[C@](C)(O)[C@H]1[C@H](O)C[C@@]2(C)[C@@H]3CCc4c(cc(OC5OC(CO)C(O)C(O)C5O)c(O)c4C)C3(C)C(=O)C[C@]12C (stereo not given in full)
qualifier: >
TGI (µM): 100
--
molecule: O=C(c1ccccc1)C1N=NCC1c1ccc([N+](=O)[O-])cc1 (stereo not given)
qualifier: >
TGI (µM): 100
--
molecule: CC(C)(C)N=c1n(C(C)(C)C)oc(=O)n1C(C)(C)C
qualifier: >
TGI (µM): 100
--
molecule: COc1ccc(Nc2nc3ccc(C(F)(F)F)cc3nc2C(=O)O)cc1OC
qualifier: =
TGI (µM): 86.6
--
molecule: COCCN1C2=CCCCC2=Nc2c1nc(N)[nH]c2=O
qualifier: >
TGI (µM): 100
--
molecule: C[N+](C)(C)CC(=O)N/N=C(/Cc1nc2c3c(ccc2[nH]c1=O)C(=O)c1ccccc1C3=O)C(=O)Nc1ccc(Cl)c(Cl)c1
qualifier: >
TGI (µM): 100
--
molecule: CCCN=Cc1cc(Cc2ccc(O)c(C=NCCC)c2)ccc1O
qualifier: =
TGI (µM): 8.97
--
molecule: Cc1occc1C(=S)Nc1ccc(Cl)c(COC(C)(C)C)c1
qualifier: =
TGI (µM): 32.3
--
molecule: COc1cc2c(cc1OC)C1c3ccccc3CCN1CC2 (stereo not given)
qualifier: >
TGI (µM): 100
--
molecule: C=C1C(=O)O[C@H]2[C@H]1CC/C(COC(=O)NCc1ccccc1OC)=C\CC[C@@]1(C)O[C@@H]21
qualifier: =
TGI (µM): 8.53
--
molecule: COC(=O)c1ccccc1/C=C1/Cc2ccccc2C1=O
qualifier: >
TGI (µM): 100
--
molecule: O=C1c2ccccc2-c2c1c1ccccc1c(=O)n2CCCNCCCNCCCn1c2c(c3ccccc3c1=O)C(=O)c1ccccc1-2
qualifier: =
TGI (µM): 2.61
--
molecule: N#Cc1c(-c2ccccc2)/c(=C\Nc2ccc(Cl)cc2)c(=O)n2c1nc1ccccc12
qualifier: >
TGI (µM): 100
--
molecule: O=C(O)C1CC(c2ccc(F)cc2)=Nc2ccc(F)cc2S1 (stereo not given)
qualifier: >
TGI (µM): 100
--
molecule: CC(=O)NS(=O)(=O)c1ccc(NC(=O)c2c3ccccc3nc3ccccc23)cc1
qualifier: >
TGI (µM): 100
--
molecule: COc1ccc2c(CCCC(c3ccccc3)c3ccccc3)c3[n+](cc2c1OC)CCc1cc2c(cc1-3)OCO2
qualifier: =
TGI (µM): 0.996
--
molecule: Nn1c(CCCCCCCCc2nnc(COc3c(O)ccc4ccccc34)n2N)nnc1COc1c(O)ccc2ccccc12
qualifier: >
TGI (µM): 100
--
molecule: N#C/C(=C1\OC(=O)C(c2ccc(Br)cc2)=C1O)c1ccc(Br)cc1
qualifier: =
TGI (µM): 28.9

---

# GI50 annotations
System: NCI/ADR-RES ovarian
procedure_summary: NCI tumour cell line growth inhibition, 48 h

compound: Oc1ccc(-c2nnc3sc(-c4ccc(F)cc4)nn23)cc1
measured_on: NCI/ADR-RES ovarian
GI50: 43600 nM
--
compound: COc1ccc2c(c1)O/C(=C\c1cccc(OCC(=O)Nc3nc4c(s3)CCCC4)c1)C2=O
measured_on: NCI/ADR-RES ovarian
GI50: 60800 nM
--
compound: COC(=O)[C@@H](C)C[C@H](Cc1ccccc1)NC(=O)c1nc([C@@H](C[C@H](C(C)C)N(C)C(=O)[C@@H](NC(=O)[C@H]2CCCCN2C)C(C)C)OC(C)=O)sc1C
measured_on: NCI/ADR-RES ovarian
GI50: 52.1 nM
--
compound: COC(=O)[C@]12CC[C@@H](C)[C@H](C)[C@@H]1C1=CC[C@@H]3[C@@]4(C)C[C@@H](OC(C)=O)[C@H](O)[C@@](C)(COC(C)=O)[C@@H]4[C@H](O)C[C@@]3(C)[C@]1(C)CC2
measured_on: NCI/ADR-RES ovarian
GI50: 2680 nM
--
compound: CCN1C(=O)N(CC)C2C1NN=c1s/c(=C\c3cccnc3)c(=O)n12 (stereo not drawn)
measured_on: NCI/ADR-RES ovarian
GI50: 380 nM
--
compound: CC(C)(C)C[C@H]1NC(C(=O)NCC[C@H](O)CO)[C@H](c2cccc(Cl)c2)[C@@]12C(=O)Nc1cc(Cl)c(F)cc12 (stereo partly drawn)
measured_on: NCI/ADR-RES ovarian
GI50: 37000 nM
--
compound: CN1CCN(CCc2cccc(C(=O)c3cnn(-c4ccc(F)cc4)c3N)c2)CC1
measured_on: NCI/ADR-RES ovarian
GI50: > 25000 nM
--
compound: ClCCn1c(CCl)nc2ccc(Cl)cc21
measured_on: NCI/ADR-RES ovarian
GI50: 1210 nM
